These entries and their values trace back to patent US20030023104A1.

# System: JURKAT cells (acute T cell human leukemia)
# conditionContext: JURKAT, coating of plates (Table 8)
property: IC50 (µM)

[[record]]
molecule = "CCCCCCCCCCCCCCCC(=O)OCC(CO)(CO)NC(=O)CNC(=O)CCCc1ccc(N(CCCl)CCCl)cc1 [CGTP1, Chlorambucil-Gly-Tris-Monopalmitate]"
reading = 8.6

